# subject_of_test: PKM2 (Homo sapiens, UniProt P14618)
# Sequence (P14618 whole entry): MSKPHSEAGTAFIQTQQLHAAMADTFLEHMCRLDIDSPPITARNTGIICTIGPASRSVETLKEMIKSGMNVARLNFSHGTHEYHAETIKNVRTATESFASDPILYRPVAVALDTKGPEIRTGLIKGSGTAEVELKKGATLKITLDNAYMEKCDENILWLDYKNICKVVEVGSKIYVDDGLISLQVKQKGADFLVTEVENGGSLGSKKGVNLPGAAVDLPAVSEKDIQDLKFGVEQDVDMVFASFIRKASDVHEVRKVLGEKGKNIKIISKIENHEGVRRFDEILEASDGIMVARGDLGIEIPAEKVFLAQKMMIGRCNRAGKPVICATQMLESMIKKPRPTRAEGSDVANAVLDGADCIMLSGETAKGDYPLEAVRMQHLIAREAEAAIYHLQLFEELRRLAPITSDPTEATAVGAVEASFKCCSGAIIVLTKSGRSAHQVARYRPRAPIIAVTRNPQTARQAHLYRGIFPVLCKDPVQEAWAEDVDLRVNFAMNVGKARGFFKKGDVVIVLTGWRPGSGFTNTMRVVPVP
# measurement_notes: PKM2 Assay (activation; LDH-coupled, NADH absorbance at 340 nm)
# Format: biochemical
# assay_setup: PKM2 50 ng/well, ADP 0.7 mM, PEP 0.15 mM, no FBP in Reaction Mix
Let's look at some molecules and their measured AC50.

>>> df
                                  structure  measured_metric  test_value
0  COCCn1c(=O)oc2cc(S(=O)(=O)Nc3cccc(Cl)c3)cc(C)c21             AC50      < 1 µM
1  CCn1c(=O)oc2cc(S(=O)(=O)Nc3ccc(F)cc3)ccc21             AC50  1 to 10 µM
2  Cc1cc2c(cc1S(=O)(=O)N1CCN(C(=O)COc3ccccc3)CC1)oc(=O)n2C             AC50    > 100 µM
3  COc1ccc(S(=O)(=O)N2CCCN(S(=O)(=O)c3ccc4c(c3)sc(=O)n4C)CC2)cc1             AC50  1 to 10 µM

We next turn to a different molecule, shown below.
Hello, I am looking for reported AC50 with PKM2 (Homo sapiens, UniProt P14618) for `COc1ccc(Cl)cc1NS(=O)(=O)c1cc2sc(=O)sc2cc1C` . Could you help? 1 to 10 µM
